src = patent US9371374

Biological target: T1, HCV Core1-169 (HCV-1, UniProt P26664 1-169)
T1 construct: also called Solid Phase HCV Core
T1 sequence: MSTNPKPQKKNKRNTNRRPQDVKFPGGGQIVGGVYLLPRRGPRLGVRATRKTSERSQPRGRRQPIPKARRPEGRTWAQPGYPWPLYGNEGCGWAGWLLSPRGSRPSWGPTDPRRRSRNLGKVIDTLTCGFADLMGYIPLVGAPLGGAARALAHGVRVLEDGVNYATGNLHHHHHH
Experiment: sandwich EIA, capture C11-9
Classify: 1 when OD492 is strictly less than 2 OD; 0 when OD492 is not.

binder | assigned.category
HCV 208A-207 (antibody, V domains shown) VH: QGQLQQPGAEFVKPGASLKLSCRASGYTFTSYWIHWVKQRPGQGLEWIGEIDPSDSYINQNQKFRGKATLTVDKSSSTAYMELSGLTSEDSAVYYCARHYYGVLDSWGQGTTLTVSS VL: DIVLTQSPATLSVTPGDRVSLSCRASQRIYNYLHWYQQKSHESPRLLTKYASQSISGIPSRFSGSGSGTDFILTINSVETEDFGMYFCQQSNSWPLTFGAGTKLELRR | 0
HCV 208A-293 (antibody, V domains shown) VH: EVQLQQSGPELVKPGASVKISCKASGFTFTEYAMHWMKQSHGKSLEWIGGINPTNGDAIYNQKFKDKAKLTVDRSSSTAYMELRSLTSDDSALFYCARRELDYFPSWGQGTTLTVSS VL: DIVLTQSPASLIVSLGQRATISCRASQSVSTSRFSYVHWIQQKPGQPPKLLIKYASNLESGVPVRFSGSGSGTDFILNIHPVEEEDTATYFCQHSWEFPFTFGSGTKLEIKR | 0
HCV 208A-741 (antibody, V domains shown) VH: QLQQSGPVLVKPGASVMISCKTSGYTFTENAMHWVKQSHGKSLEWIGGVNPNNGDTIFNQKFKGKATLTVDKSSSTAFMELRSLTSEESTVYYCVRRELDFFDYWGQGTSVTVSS VL: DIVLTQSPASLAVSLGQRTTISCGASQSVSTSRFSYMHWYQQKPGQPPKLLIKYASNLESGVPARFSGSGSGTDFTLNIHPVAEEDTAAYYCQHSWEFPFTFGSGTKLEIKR | 0
HCV 208A-557 (antibody, V domains shown) VH: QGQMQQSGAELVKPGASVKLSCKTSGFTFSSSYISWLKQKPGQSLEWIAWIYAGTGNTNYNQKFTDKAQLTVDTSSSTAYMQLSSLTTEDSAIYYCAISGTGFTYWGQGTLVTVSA VL: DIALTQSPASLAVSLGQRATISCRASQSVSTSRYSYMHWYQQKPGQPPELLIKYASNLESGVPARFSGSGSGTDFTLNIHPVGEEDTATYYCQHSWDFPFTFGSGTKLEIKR | 1

Input line: Hi there! Is OD492 for HCV 208B-612 (antibody, V domains shown) VH: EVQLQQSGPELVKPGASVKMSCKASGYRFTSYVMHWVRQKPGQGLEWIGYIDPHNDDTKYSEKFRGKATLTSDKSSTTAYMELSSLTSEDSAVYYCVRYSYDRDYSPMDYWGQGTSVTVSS VL: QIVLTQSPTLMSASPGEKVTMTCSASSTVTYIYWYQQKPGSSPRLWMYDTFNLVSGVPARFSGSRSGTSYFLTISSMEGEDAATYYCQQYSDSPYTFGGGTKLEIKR below 2 OD, do you know?
Output line: 1
